- Tested on: SBcl2
- Measurement protocol: Antitumor activity against human SBcl2 cells assessed as reduction in cell viability incubated for 72 hrs by XTT assay
- Format: functional, cell-based
- Study conditions: SBcl2, 72 h
Assay readout: IC50 (nM)
Form entry: value (nM) — number only.

Report IC50 for CC(C)=CC[C@@H](OC(=O)C=C(C)C)C1=CC(=O)c2c(O)ccc(O)c2C1=O please.
1100

---

- System: MDA-MB-436
- Measurement protocol: Antiproliferative activity against human MDA-MB-436 cells assessed as inhibition of cell growth incubated for 24 hrs in presence of foetal bovine serum by MTT assay
- Type: functional, cell-based
- Study conditions: MDA-MB-436, 24 h
Assay readout: pIC50
Bear in mind: pIC50 is minus log10 of a mol/L concentration; give just that figure.

# get_value(readout='pIC50', item= CC(C)=CC[C@@H](O)C1=CC(=O)c2c(O)ccc(O)c2C1=O )
5.44

---

- Tested on: HepG2
- Measurement protocol: Antiproliferative activity against human HepG2 cells assessed as reduction in cell viability incubated for 24 hrs by MTT assay
- Assay type: functional, cell-based
- Study conditions: HepG2, 24 h
Assay readout: IC50

[
  {
    "Chemical string": "CC(C)=CC[C@@H](O)C1=CC(=O)c2c(O)ccc(O)c2C1=O",
    "IC50": "1290 nM"
  }
]

Lab note: next molecule to report on.
# lookup: IC50 of CC(C)=CC[C@@H](OC(=O)C1CC1)C1=CC(=O)c2c(O)ccc(O)c2C1=O
759 nM
